# System: C8166
# assay notes: Antiviral activity was evaluated by inhibition of HIV-1 replication in CD4+ lymphoblastoid cell line infected with HIV/IIIB strain
# Format: functional, cell-based
# condition context: Homo sapiens
pIC50: −log10 of the molar value.
recorded metric: pIC50

Sample records with pIC50:
substance smiles	pIC50
CC(C)=CCN1Cc2cc(Cl)cc3[nH]c(=S)n(c23)C[C@@H]1C	8.82
CCN1c2cc(C)c(C)cc2N(C)S(=O)(=O)c2cccnc21	7.40

I: CCN1C=CC=C2C1=Nc1cc(C)c(C)cc1N(C)S2(=O)=O
II: CN1c2cccnc2Nc2ncccc2S1(=O)=O
III: CCN1c2cc(Cl)c(C)cc2S(=O)(=O)N(C)c2cccnc21
IV: CCN1C=CC=C2C1=Nc1ccccc1S(=O)(=O)N2C
Inquiry: Rank the items in ascending order with respect to pIC50. Reply format: the labels, ordered as requested.
Reply text: III, II, IV, I
(III: 4.32, II: 5.15, IV: 5.43, I: 6.48)

1: Cc1cc2c(cc1C)N(C)S(=O)(=O)C1=CC=CN(C(C)C)C1=N2
2: O=c1[nH]cnc2c1ncn2[C@H]1CC[C@@H](CO)O1
Inquiry: Which entry has a larger number for pIC50, 1 or 2 ? Please reply using the label of the selected record.
Reply text: 1

====

Each entry below carries its reported CC50.
# Tested on: C8166
# assay notes: Cytotoxic activity was evaluated in CD4+ lymphoblastoid cell line
# Type: functional
# condition context: Homo sapiens
Field: numeric (µM). Do not append units.

Sample records with CC50:
substance smiles	observed value
O=c1[nH]cnc2c1ncn2[C@H]1CC[C@@H](CO)O1	9000
CC(C)=CCN1Cc2cc(Cl)cc3[nH]c(=S)n(c23)C[C@@H]1C	34
CCN1C=CC=C2C1=Nc1cc(Cl)c(C)cc1S(=O)(=O)N2C	12
Cc1cn([C@H]2C[C@H](N=[N+]=[N-])[C@@H](CO)O2)c(=O)[nH]c1=O	1400
CCN1c2cc(C)c(C)cc2N(C)S(=O)(=O)c2cccnc21	150

Inquiry: Item `Cc1ccnc2c1NC(=O)c1cccnc1N2C1CC1` has what recorded CC50?
Reply text: 321

Inquiry: What about this compound? `CCN1C=CC=C2C1=Nc1ccccc1S(=O)(=O)N2C`
Reply text: 80

Inquiry: What about this compound? `CCN1c2ncccc2N(C)S(=O)(=O)c2cccnc21`
Reply text: 300

====

# Test system: C8166
# assay notes: Antiviral activity was evaluated by inhibition of HIV-1 replication in CD4+ lymphoblastoid cell line infected with HIV/IIIB strain
# Assay type: functional, cell-based
# condition context: Homo sapiens
recorded metric: IC50 (nM)

Sample records with IC50:
compound	recorded metric	observed value
Cc1cn([C@H]2C[C@H](N=[N+]=[N-])[C@@H](CO)O2)c(=O)[nH]c1=O [ZIDOVUDINE]	IC50	4
CCN1C=CC=C2C1=Nc1cc(Cl)c(C)cc1S(=O)(=O)N2C	IC50	280

1: Cc1cc2c(cc1C)N(C)S(=O)(=O)c1cccnc1N2
2: Cc1cc2c(cc1C)N(C)S(=O)(=O)c1cccnc1N2C(C)C
Inquiry: Returns the identifier with the smallest measured IC50 among 1 and 2 . Please reply using the label of the selected record.
Reply text: 2

====

# System: C8166
# assay notes: Antiviral activity was evaluated by inhibition of HIV-1 replication in CD4+ lymphoblastoid cell line infected with HIV/IIIB strain
# Format: functional, cell-based
# condition context: Homo sapiens
pIC50: −log10 of the molar value.
recorded metric: pIC50

Sample records with pIC50:
substance smiles	pIC50
Cc1ccnc2c1NC(=O)c1cccnc1N2C1CC1	7.40
Cc1cc2c(cc1Cl)Nc1ncccc1N(C)S2(=O)=O	< 3.52

Let us move to another entry and its pIC50.
Inquiry: Item `CN1c2cccnc2Nc2ccccc2S1(=O)=O` has what recorded pIC50?
Reply text: < 3.52

====

Each entry below carries its reported CC50.
# Tested on: C8166
# assay notes: Cytotoxic activity was evaluated in CD4+ lymphoblastoid cell line
# Format: functional
# condition context: Homo sapiens

Inquiry: Item `Cc1cc2c(cc1C)N(C)S(=O)(=O)C1=CC=CN(C(C)C)C1=N2` has what recorded CC50?
Reply text: > 30 µM

Inquiry: What about this compound? `CCN1c2cc(Cl)c(C)cc2S(=O)(=O)N(C)c2cccnc21`
Reply text: > 60 µM

Inquiry: What about this compound? `CCN1C=CC=C2C1=Nc1cc(C)c(C)cc1N(C)S2(=O)=O`
Reply text: > 30 µM

Inquiry: What about this compound? `Cc1cc2c(cc1C)N(C)S(=O)(=O)c1cccnc1N2C(C)C`
Reply text: > 60 µM

Inquiry: What about this compound? `CN1c2cccnc2Nc2ncccc2S1(=O)=O`
Reply text: > 125 µM

Inquiry: What about this compound? `Cc1cc2c(cc1C)N(C)S(=O)(=O)c1cccnc1N2`
Reply text: > 125 µM

Provenance of the data: ChEMBL document CHEMBL1151567
